# Test system: MCF7
# EXPERIMENT_DESCRIPTION: Cytotoxicity in human MCF7 cells assessed as reduction in cell viability incubated for 72 hrs by calcein AM cytotoxicity assay
# Assay type: functional, cell-based
# CONDITIONS: Homo sapiens, MCF7, 72 h
EXPERIMENTAL_ENDPOINT: pIC50
Schema: pIC50 number; meaning minus log10 of the concentration expressed in molar units.

SMI | TEST_VALUE
C=C(C)[C@@H]1CC[C@]2(C(=O)OCCN3CCCC3)CC[C@]3(C)[C@H](CC[C@@H]4[C@@]5(C)CC[C@H](O)C(C)(C)[C@@H]5CC[C@]43C)[C@@H]12 | 4.70

Task: Identify measured pIC50 associated with `C=C(C)[C@@H]1CC[C@]2(C(=O)OCCOC)CC[C@]3(C)[C@H](CC[C@@H]4[C@@]5(C)CC[C@H](O)C(C)(C)[C@@H]5CC[C@]43C)[C@@H]12`
Result: 4.45

Task: Identify measured pIC50 associated with `COCCOC(=O)[C@]12CC[C@@H](C(C)C)[C@@H]1[C@H]1CC[C@@H]3[C@@]4(C)CC[C@H](O)C(C)(C)[C@@H]4CC[C@@]3(C)[C@]1(C)CC2`
Result: 4.35

Task: Identify measured pIC50 associated with `C=C(C)[C@@H]1CC[C@]2(C(=O)OCCN3CCCCC3)CC[C@]3(C)[C@H](CC[C@@H]4[C@@]5(C)CC[C@H](O)C(C)(C)[C@@H]5CC[C@]43C)[C@@H]12`
Result: 4.48

Task: Identify measured pIC50 associated with `COCCOCCOC(=O)[C@]12CC[C@@H](C(C)C)[C@@H]1[C@H]1CC[C@@H]3[C@@]4(C)CC[C@H](O)C(C)(C)[C@@H]4CC[C@@]3(C)[C@]1(C)CC2`
Result: 4.50

Task: Identify measured pIC50 associated with `C=C(C)[C@@H]1CC[C@]2(C(=O)OCCOCCOC)CC[C@]3(C)[C@H](CC[C@@H]4[C@@]5(C)CC[C@H](O)C(C)(C)[C@@H]5CC[C@]43C)[C@@H]12`
Result: 4.44

Task: Identify measured pIC50 associated with `CC(=O)O[C@H]1CC[C@]2(C)[C@H]3CC[C@@H]4C5=C(C(C)C)C(=O)C[C@]5(C(=O)O[C@@H]5O[C@H](CO)[C@H](O)[C@H](O)[C@H]5O)CC[C@@]4(C)[C@]3(C)CC[C@H]2C1(C)C`
Result: 4.43

Task: Identify measured pIC50 associated with `CC(=O)O[C@H]1CC[C@]2(C)[C@H]3CC[C@@H]4C5=C(C(C)C)C(=O)C(=O)[C@]5(C(=O)OCCN5CCOCC5)CC[C@@]4(C)[C@]3(C)CC[C@H]2C1(C)C`
Result: 4.74

Task: Identify measured pIC50 associated with `C=C(C)[C@@H]1CC[C@]2(C(=O)O[C@@H]3O[C@H](COC(C)=O)[C@H](OC(C)=O)[C@H](OC(C)=O)[C@H]3OC(C)=O)CC[C@]3(C)[C@H](CC[C@@H]4[C@@]5(C)CC[C@H](O)C(C)(C)[C@@H]5CC[C@]43C)[C@@H]12`
Result: 5.60

----------
# Tested on: MCF7
# EXPERIMENT_DESCRIPTION: Cytotoxicity in human MCF7 cells assessed as reduction in cell viability incubated for 72 hrs by calcein AM cytotoxicity assay
# Assay type: functional, cell-based
# CONDITIONS: Homo sapiens, MCF7, 72 h
EXPERIMENTAL_ENDPOINT: pIC50
Schema: pIC50 number; meaning minus log10 of the concentration expressed in molar units.

SMI | pIC50
CC(C)[C@@H]1CC[C@]2(C(=O)OCCN3CCCCC3)CC[C@]3(C)[C@H](CC[C@@H]4[C@@]5(C)CC[C@H](O)C(C)(C)[C@@H]5CC[C@]43C)[C@@H]12 | 4.50

For the next question, use this molecule.
Task: Identify measured pIC50 associated with `CC(C)[C@@H]1CC[C@]2(C(=O)OCCN3CCOCC3)CC[C@]3(C)[C@H](CC[C@@H]4[C@@]5(C)CC[C@H](O)C(C)(C)[C@@H]5CC[C@]43C)[C@@H]12`
Result: 4.42

These measurements were taken from ChEMBL document CHEMBL4190365.
